- target.desc: KRas WT (Homo sapiens)
- Construct: Biotinylated KRas (corresponding to amino acids 1-169, produced at Accelegan Inc.); biotin (biotinylated); purchased Accelegan Inc
- Sequence (P01116 1-169 isoform P01116-2): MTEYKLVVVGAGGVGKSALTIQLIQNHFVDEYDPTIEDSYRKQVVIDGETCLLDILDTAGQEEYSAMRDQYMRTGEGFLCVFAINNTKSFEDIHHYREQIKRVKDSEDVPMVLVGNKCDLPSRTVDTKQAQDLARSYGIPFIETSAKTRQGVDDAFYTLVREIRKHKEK
- assay.procedure: KRas binding assay, TR-FRET displacement of Cy5 labelled tracer
- recorded.conditions: 60-minute incubation at room temperature, 1% DMSO, pH 7.5
observation.type: IC50 (nM)

{"compound": "COCc1ccn(C(=O)C2CCCN(c3nc(OC[C@@]45CCCN4C[C@H](F)C5)nc4c(F)c(-c5ccc(F)c6sc(N)c(C#N)c56)c(Cl)cc34)CC2)n1 (stereo partly drawn)", "IC50 (nM)": 13}
{"compound": "CCc1c(F)ccc2cc(O)cc(-c3ncc4c(N5CCN(C(=O)n6ccc(C)n6)C(CF)C5)nc(OC[C@@]56CCCN5C[C@H](F)C6)nc4c3F)c12 (stereo partly drawn)", "IC50 (nM)": 30}

[1] O=C(Oc1c(F)cc(F)cc1F)C1CCN(c2nc(OCC34CCCN3CCC4)nc3c(F)c(-c4cccc5cccc(F)c45)ncc23)CC1
[2] C=CC1(C(=O)n2ccc(C)n2)CCN(c2nc(OC[C@@]34CCCN3C[C@H](F)C4)nc3c(F)c(-c4cc(O)cc5ccc(F)c(CC)c45)ncc23)CC1
[3] CCc1c(F)ccc2cc(O)cc(-c3ncc4c(N(C)CCCC(=O)NC(C)=O)nc(OC[C@@]56CCCN5C[C@H](F)C6)nc4c3F)c12
[4] Cc1ccn(C(=O)CCNc2cc(O[C@@H](C)[C@@H]3CCCN3C)nc(-c3noc([C@@]4(C)CCCc5sc(N)c(C#N)c54)n3)n2)n1
Sort the compounds on IC50; start with the lowest figure. Use the labels to give the ranking in the order requested.
4, 3, 2, 1

* * *

- target.desc: KRas-mediated phosphorylation of ERK in MKN1 cells (Homo sapiens, UniProt P01116)
- Construct: pERK HTRF read-out
- Sequence (P01116 1-188 isoform P01116-2): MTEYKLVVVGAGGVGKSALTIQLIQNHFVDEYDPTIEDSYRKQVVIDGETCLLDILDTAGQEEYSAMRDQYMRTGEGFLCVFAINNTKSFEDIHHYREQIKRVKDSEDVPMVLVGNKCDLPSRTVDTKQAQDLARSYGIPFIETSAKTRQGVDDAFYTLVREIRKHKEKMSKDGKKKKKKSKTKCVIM
- assay.procedure: Inhibition of KRas-mediated phosphorylation of ERK (HTRF), MKN1 cells
- Type: cell-based
- recorded.conditions: MKN1 cells (KRas WT); HTRF pERK; 3 h incubation
observation.type: IC50 (nM)

Examples with their reported IC50 follow.
{"compound": "CCc1c(F)ccc2cc(O)cc(-c3ncc4c(N5CC6CC5CC6C(=O)n5ccc(C)n5)nc(OC[C@@]56CCCN5C[C@H](F)C6)nc4c3F)c12 (some centres unmarked)", "val": 9190}
{"compound": "CCc1c(F)ccc2cc(O)cc(-c3ncc4c(N(C)CCC(=O)n5ccc(C)n5)nc(OC[C@@]56CCCN5C[C@H](F)C6)nc4c3F)c12", "val": 875}

[A] Cc1ccn(C(=O)CCCN(C)c2cc(O[C@@H](C)[C@@H]3CCCN3C)nc(-c3noc([C@@]4(C)CCCc5sc(N)c(C#N)c54)n3)n2)n1
[B] CCc1c(F)ccc2cc(O)cc(-c3ncc4c(N5CCC(C(=O)NC(C)=O)CC5)nc(OC[C@@]56CCCN5C[C@H](F)C6)nc4c3F)c12
[C] CN(C(=O)C1CCN(c2nc(OC[C@@]34CCCN3C[C@H](F)C4)nc3c(F)c(-c4ccc(F)c5sc(N)c(C#N)c45)c(Cl)cc23)CC1)c1cccnc1
[D] CCc1c(F)ccc2cc(O)cc(-c3ncc4c(N5CCC(C(=O)n6cc(C(C)(C)C)cn6)CC5)nc(OC[C@@]56CCCN5C[C@H](F)C6)nc4c3F)c12
Hi! Can you put these in order of IC50, lowest number first? Could you list the labels in the order requested?
C, B, D, A
(C: 33 nM, B: 868 nM, D: 3330 nM, A: 7310 nM)

[P] CN(CCCC(=O)Oc1ccccc1)c1nc(OC[C@@]23CCCN2C[C@H](F)C3)nc2c(F)c(-c3ccc(F)c4sc(N)c(C#N)c34)c(Cl)cc12
[Q] CN(C)c1ccn(C(=O)C2CCCN(c3nc(OC[C@@]45CCCN4C[C@H](F)C5)nc4c(F)c(-c5ccc(F)c6sc(N)c(C#N)c56)c(Cl)cc34)CC2)n1 (some centres unmarked)
Returns the identifier with the smallest measured IC50 among P and Q . When you have decided, please share the label of that item.
Q
(Q: 140 nM, P: 230 nM)

[I] CCc1c(F)ccc2cc(O)cc(-c3ncc4c(N5CC[C@@H]6[C@H](C5)[C@@H]6C(=O)n5ccc(C)n5)nc(OC[C@@]56CCCN5C[C@H](F)C6)nc4c3F)c12
[II] CN(CCCC(=O)Oc1ccccc1F)c1nc(OC[C@@]23CCCN2C[C@H](F)C3)nc2c(F)c(-c3ccc(F)c4sc(N)c(C#N)c34)c(Cl)cc12
Identify the entry with the smaller IC50: I or II . Answer by quoting the chosen item's label.
II

* * *

- target.desc: KRas-mediated phosphorylation of ERK in MKN1 cells (Homo sapiens, UniProt P01116)
- Construct: pERK HTRF read-out
- assay.procedure: Inhibition of KRas-mediated phosphorylation of ERK (HTRF), MKN1 cells
- Type: cell-based
- recorded.conditions: MKN1 cells (KRas WT); HTRF pERK; 3 h incubation
observation.type: IC50 (nM)

{"molecule": "Cc1ccn(C(=O)CCCNc2nc(OC[C@@]34CCCN3C[C@H](F)C4)nc3c(F)c(-c4ccc(F)c5sc(N)c(C#N)c45)c(Cl)cc23)n1", "IC50 [nM]": 531}

[A] CCc1c(F)ccc2cc(O)cc(-c3ncc4c(N5CCC(C(=O)n6ccc(N(C)C)n6)CC5)nc(OC[C@@]56CCCN5C[C@H](F)C6)nc4c3F)c12
[B] Cc1ccn(C(=O)C2CCCCN(c3nc(OC[C@@]45CCCN4C[C@H](F)C5)nc4c(F)c(-c5ccc(F)c6sc(N)c(C#N)c56)c(Cl)cc34)CC2)n1 (stereo partly drawn)
Pick one: A or B . Which has the bigger IC50 number? Identify your pick by its label.
A

* * *

- target.desc: KRas-mediated phosphorylation of ERK in MKN1 cells (Homo sapiens, UniProt P01116)
- Construct: pERK HTRF read-out
- assay.procedure: Inhibition of KRas-mediated phosphorylation of ERK (HTRF), MKN1 cells
- Format: cell-based
- recorded.conditions: MKN1 cells (KRas WT); HTRF pERK; 3 h incubation
observation.type: IC50 (nM)

{"compound": "CCc1c(F)ccc2cc(O)cc(-c3ncc4c(N5CC[C@H](C(=O)n6ccc(C)n6)[C@H](C)C5)nc(OC[C@@]56CCCN5C[C@H](F)C6)nc4c3F)c12 [Example 85]", "unit.label": "nM", "val": 48}
{"compound": "CCc1c(F)ccc2cc(O)cc(-c3ncc4c(NCCC(=O)n5ccc(C)n5)nc(OC[C@@]56CCCN5C[C@H](F)C6)nc4c3F)c12 [Example 122]", "unit.label": "nM", "val": 342}
{"compound": "COCC(=O)N(C)C(=O)CCCN(C)c1nc(OC[C@@]23CCCN2C[C@H](F)C3)nc2c(F)c(-c3ccc(F)c4sc(N)c(C#N)c34)c(Cl)cc12 [Example 307]", "unit.label": "nM", "val": 70}

[1] Cn1ccc(COC(=O)C2CCN(c3nc(OC[C@@]45CCCN4C[C@H](F)C5)nc4c(F)c(-c5ccc(F)c6sc(N)c(C#N)c56)c(Cl)cc34)CC2)n1 [Example 245]
[2] COC(=O)C1CCN(c2nc(OC[C@@]34CCCN3C[C@H](F)C4)nc3c(F)c(-c4ccc(F)c5sc(N)c(C#N)c45)c(Cl)cc23)CC1 [Example 286]
[3] CCc1c(F)ccc2cc(O)cc(N3CCc4c(nc(OC[C@@]56CCCN5C[C@H](F)C6)nc4N(C)CCCC(=O)n4ccc(C)n4)C3)c12 [Example 194]
Reorder the items by IC50, least to greatest. Sort and list the labels as requested.
1, 2, 3

* * *

- target.desc: KRas G12S (Homo sapiens, UniProt P01116, G12S)
- Construct: Biotinylated KRas (corresponding to amino acids 1-169, produced at Accelegan Inc.); biotin (biotinylated); purchased Accelegan Inc
- Sequence (P01116 1-169 isoform P01116-2 G12S): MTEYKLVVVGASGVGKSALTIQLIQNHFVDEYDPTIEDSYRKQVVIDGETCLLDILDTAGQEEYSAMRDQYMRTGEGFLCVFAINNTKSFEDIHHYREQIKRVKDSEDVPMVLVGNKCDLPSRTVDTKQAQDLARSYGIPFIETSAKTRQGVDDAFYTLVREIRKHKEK
- assay.procedure: KRas binding assay, TR-FRET displacement of Cy5 labelled tracer
- recorded.conditions: 60-minute incubation at room temperature, 1% DMSO, pH 7.5
observation.type: IC50 (nM)

Consider the reported IC50 for these compounds:
{"compound": "CCc1c(F)ccc2cc(O)cc(-c3ncc4c(N5C[C@H]6C[C@H](C(=O)n7ccc(C)n7)[C@H]6C5)nc(OC[C@@]56CCCN5C[C@H](F)C6)nc4c3F)c12", "unit.label": "nM", "val": 185}
{"compound": "O=C(Oc1ccc(F)c(F)c1)C1CCN(c2nc(OCC34CCCN3CCC4)nc3c(F)c(-c4cccc5cccc(F)c45)ncc23)CC1", "unit.label": "nM", "val": 42100}
{"compound": "CCc1c(F)ccc2cc(O)cc(-c3ncc4c(N5CC[C@@H](C(=O)n6ccc(C)n6)[C@H](C)C5)nc(OC[C@@]56CCCN5C[C@H](F)C6)nc4c3F)c12", "unit.label": "nM", "val": 2500}
{"compound": "CCc1c(F)ccc2cc(O)cc(-c3ncc4c(N(C)CCCC(=O)N(C)C(C)=O)nc(OC[C@@]56CCCN5C[C@@]5(CC5(F)F)C6)nc4c3F)c12", "unit.label": "nM", "val": 21}

[I] O=C(C1CCN(c2nc(OCC34CCCN3CCC4)nc3c(F)c(-c4cccc5cccc(F)c45)ncc23)CC1)n1cccn1
[II] O=C(Oc1ccc(C(F)(F)F)cc1)C1CCCN(c2nc(OCC34CCCN3CCC4)nc3c(F)c(-c4cccc5cccc(F)c45)ncc23)CC1 (stereo not drawn)
Quick one: lower IC50, I or II ? The response must carry the label of the picked entry.
I
